Target: Cannabinoid receptor 2 (Homo sapiens)
Experiment: Displacement of [3H]-CP55940 from human recombinant CB2 receptor transfected in HEK293 cells at 10 uM after 90 mins relative to control
Format: cell-based
observable: inhibition
Field: value (include unit after the number)

In [3]: df
Out[3]:
                              sample_smiles  endpoint_value
0  COc1cc(O)c2c(c1)CC(=O)CCCC(=O)CCC[C@@H](C)OC2=O           46.3%
1  COc1cc(O)c2c(c1)CC(=O)CCCC/C=C/C[C@@H](C)OC2=O           44.5%
2  C[C@@H]1C[C@H]2O[C@@H]2/C=C\C=C\C(=O)Cc2c(Cl)c(O)cc(O)c2C(=O)O1             13%
3  CCCCCCC(C)(C)c1ccc([C@@H]2C[C@H](O)CC[C@H]2CCCO)c(O)c1           90.3%

Now for another entry.
Incoming: Form field: reported inhibition of C[C@@H]1CCCC(=O)CCCC(=O)Cc2cc(O)cc(O)c2C(=O)O1
Outgoing: 27.7%
